meta.source: paper PMC2752672

# Assay Target: KOR (Homo sapiens)
# Sequence (P41145 whole entry): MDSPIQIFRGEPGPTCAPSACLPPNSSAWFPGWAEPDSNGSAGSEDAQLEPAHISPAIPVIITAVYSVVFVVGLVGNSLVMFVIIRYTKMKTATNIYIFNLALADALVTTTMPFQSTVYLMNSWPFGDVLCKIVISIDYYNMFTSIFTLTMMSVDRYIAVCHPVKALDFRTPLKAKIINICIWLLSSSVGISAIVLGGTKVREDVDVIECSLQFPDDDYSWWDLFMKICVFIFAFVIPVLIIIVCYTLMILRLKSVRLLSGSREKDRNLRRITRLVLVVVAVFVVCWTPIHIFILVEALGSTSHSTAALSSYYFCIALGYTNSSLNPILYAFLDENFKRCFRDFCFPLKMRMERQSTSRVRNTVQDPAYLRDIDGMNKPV
# Test: biochemical
# Type: biochemical
# Condition Info: read-out: EC50 c
pEC50: −log10 of the molar value.
Attribute: pEC50
Measured Property: pEC50

Compound | Quantitative Readout
COC(=O)C1CC(OC(=O)C(Cl)Cl)C(=O)C2C1(C)CCC1C(=O)OC(c3ccoc3)CC12C (stereo not shown) [RB-66, 22,22-Dichlorosalvinorin A] | 5.78
COCC(=O)O[C@H]1C[C@@H](C(=O)OC)[C@]2(C)CC[C@H]3C(=O)O[C@H](c4ccoc4)C[C@]3(C)[C@H]2C1=O [RB-65, 22-Methoxysalvinorin A] | 7.17
COC(=O)C1CC(OC(=O)C(C)Cl)C(=O)C2C1(C)CCC1C(=O)OC(c3ccoc3)CC12C [RB-55, (22-R,S)-22-Chloro-22-methylsalvinorin A] | 7.46
COC(=O)C1CC(OC(=O)C(C)Cl)C(=O)C2C1(C)CCC1C(=O)OC(c3ccoc3)CC12C (single isomer, unassigned) [RB-55-1, (22-S)-22-Chloro-22-methylsalvinorin A] | 6.80
COC(=O)[C@@H]1C[C@H](OC(=O)CBr)C(=O)[C@H]2[C@@]1(C)CC[C@H]1C(=O)O[C@H](c3ccoc3)C[C@]21C [RB-50, 22-Bromosalvinorin A] | 7.96
COC(=O)[C@@H]1C[C@H](OC(=O)CCl)C(=O)[C@H]2[C@@]1(C)CC[C@H]1C(=O)O[C@H](c3ccoc3)C[C@]21C [RB-48, 22-Chlorosalvinorin A] | 9.72
COC(=O)C1CC(OC(=O)C(C)Cl)C(=O)C2C1(C)CCC1C(=O)OC(c3ccoc3)CC12C (single isomer, unassigned) [RB-55-2, (22-R)-22-Chloro-22-methylsalvinorin A] | 6.56
